assay: clinical; conditions: human, in vivo, iv, Vdss
measurementType: Vd (L/kg)

{"molecule": "CCC#CC[C@H](C)[C@H](O)C#C[C@@H]1[C@H]2C/C(=C/COCC(=O)O)C[C@H]2C[C@H]1O [CICAPROST]", "measurementType": "Vd", "numericValue": 0.08}
{"molecule": "CC(C)(O)c1ccccc1CC[C@@H](SCC1(CC(=O)O)CC1)c1cccc(/C=C/c2ccc3ccc(Cl)cc3n2)c1 [MONTELUKAST]", "measurementType": "Vd", "numericValue": 0.15}
{"molecule": "CN[C@@H]1[C@H](O)[C@H](NC)[C@H]2O[C@@]3(O)C(=O)C[C@@H](C)O[C@H]3O[C@@H]2[C@H]1O [SPECTINOMYCIN]", "measurementType": "Vd", "numericValue": 0.13}
{"molecule": "O=C1c2c(O)ccc(O)c2C(=O)c2c(NCCNCCO)ccc(NCCNCCO)c21 [MITOXANTRONE]", "measurementType": "Vd", "numericValue": 12}
{"molecule": "NCCC(O)(P(=O)(O)O)P(=O)(O)O [PAMIDRONIC ACID]", "measurementType": "Vd", "numericValue": 1.8}
{"molecule": "CC(=O)OCC1=C(C(=O)O)N2C(=O)[C@@H](NC(=O)Cc3cccs3)[C@H]2SC1 [CEPHALOTHIN]", "measurementType": "Vd", "numericValue": 0.07}
{"molecule": "CCCc1cc(=O)[nH]c(=S)[nH]1 [PROPYLTHIOURACIL]", "measurementType": "Vd", "numericValue": 0.34}
{"molecule": "CC(C)[C@@H](CC[C@@H](C)[C@H]1CC[C@H]2[C@@H]3[C@H](O)C[C@H]4C[C@@H](NCCCNCCCCN)CC[C@]4(C)[C@H]3CC[C@]12C)OS(=O)(=O)O [SQUALAMINE]", "measurementType": "Vd", "numericValue": 0.23}
{"molecule": "O=C1CN=C(c2ccccc2Cl)c2cc([N+](=O)[O-])ccc2N1 [CLONAZEPAM]", "measurementType": "Vd", "numericValue": 2.9}
{"molecule": "COc1cccc(C2(O)CCCCC2CN(C)C)c1 (stereo not given) [TRAMADOL]", "measurementType": "Vd", "numericValue": 2.8}
{"molecule": "CCC(=O)C1(c2cccc(O)c2)CCN(C)CC1 [KETOBEMIDONE]", "measurementType": "Vd", "numericValue": 0.48}
{"molecule": "Cc1onc(-c2c(F)cccc2Cl)c1C(=O)N[C@@H]1C(=O)N2[C@@H]1SC(C)(C)[C@@H]2C(=O)O [FLOXACILLIN]", "measurementType": "Vd", "numericValue": 0.19}
{"molecule": "CN(C)c1cc(NC(=O)CNC(C)(C)C)c(O)c2c1C[C@H]1C[C@H]3[C@H](N(C)C)C(O)=C(C(N)=O)C(=O)[C@@]3(O)C(O)=C1C2=O [TIGECYCLINE]", "measurementType": "Vd", "numericValue": 12}
{"molecule": "COc1cc2c(cc1OC)[C@@H](Cc1cc(OC)c(OC)c(OC)c1)[N+](C)(CCCOC(=O)CC/C=C/CCC(=O)OCCC[N+]1(C)CCc3cc(OC)c(OC)cc3[C@H]1Cc1cc(OC)c(OC)c(OC)c1)CC2 (stereo not given in full)", "measurementType": "Vd", "numericValue": 0.27}
{"molecule": "O=C1c2ccccc2S(=O)(=O)N1CCCCNC[C@H]1CCc2ccccc2O1 [REPINOTAN]", "measurementType": "Vd", "numericValue": 0.21}
